Listed compounds paired with reported EC50
System: Hepatitis C virus
Test: Antiviral activity against HCV replicon
Format: functional, organism-based, Hepacivirus hominis
Your answer is read as µM, so omit the unit and give the number.

COc1ccc2c(O[C@@H]3C[C@H]4C(=O)N[C@]5(C(=O)O)C[C@H]5/C=C\CCCCCN(NC(=O)OC(C)(C)C)C(=O)N4C3)cc(-c3ccccc3)nc2c1 : 31

Q: Return the recorded EC50 value; entry: C=C[C@@H]1C[C@]1(NC(=O)[C@@H]1C[C@@H](Oc2cc(-c3ccccc3)nc3cc(OC)ccc23)CN1C(=O)N(CC(C)C)NC(=O)OC(C)(C)C)C(=O)O
Ans: 53

Q: Return the recorded EC50 value; entry: COc1ccc2c(O[C@@H]3C[C@H]4C(=O)N[C@]5(C(=O)O)C[C@H]5/C=C\CCCCC[C@H](NC(=O)OC5CCCC5)C(=O)N4C3)cc(-c3csc(NC(C)C)n3)nc2c1
Ans: 0.0012

Q: Return the recorded EC50 value; entry: COc1ccc2c(O[C@@H]3C[C@H]4C(=O)N[C@]5(C(=O)O)C[C@H]5/C=C\CCCCC[C@H](NC(=O)OC(C)(C)C)C(=O)N4C3)cc(-c3ccccc3)nc2c1
Ans: 0.077
